Calls of active or inactive are those of the source.
Kd, UniProtKB P27707: measured values
Sequence (P27707 whole entry): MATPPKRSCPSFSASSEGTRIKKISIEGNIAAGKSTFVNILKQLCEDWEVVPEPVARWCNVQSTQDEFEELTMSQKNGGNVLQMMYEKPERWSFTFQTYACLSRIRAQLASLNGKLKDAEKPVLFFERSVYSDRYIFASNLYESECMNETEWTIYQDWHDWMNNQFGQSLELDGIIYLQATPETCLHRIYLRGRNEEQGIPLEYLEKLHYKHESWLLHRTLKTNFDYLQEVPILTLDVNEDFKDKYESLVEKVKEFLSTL

chemicalString	assayReadout	reportedResult
O=C(Nc1nc2cccc(-c3ccc(CN4CCS(=O)(=O)CC4)cc3)n2n1)C1CC1	Kd	> 30 µM (inactive)
N#CC1(c2ccc(NC(=O)c3cccnc3NCc3ccncc3)cc2)CCCC1	Kd	> 30 µM (inactive)
CCn1c(C(=O)N(C2CC2)C2CC2)cc2c3c(ncn3C)c(Nc3cc(C)n(C)n3)nc21	Kd	> 30 µM (inactive)
CO[C@H]1C[C@@H]2CC[C@@H](C)[C@@](O)(O2)C(=O)C(=O)N2CCCC[C@H]2C(=O)O[C@H]([C@H](C)C[C@@H]2CC[C@@H](O)[C@H](OC)C2)CC(=O)[C@H](C)/C=C(\C)[C@@H](O)[C@@H](OC)C(=O)[C@H](C)C[C@H](C)/C=C/C=C/C=C/1C	Kd	> 30 µM (inactive)
CO[C@H]1C[C@@H]2CC[C@@H](C)[C@@](O)(O2)C(=O)C(=O)N2CCCC[C@H]2C(=O)O[C@H]([C@H](C)C[C@@H]2CC[C@@H](OP(C)(C)=O)[C@H](OC)C2)CC(=O)[C@H](C)/C=C(\C)[C@@H](O)[C@@H](OC)C(=O)[C@H](C)C[C@H](C)/C=C/C=C/C=C/1C	Kd	> 30 µM (inactive)

Kindly consider the entry below.
Request body: readout Kd, system UniProtKB P27707, query "Cn1cc(C2=C(c3cn(C4CCN(Cc5ccccn5)CC4)c4ccccc34)C(=O)NC2=O)c2ccccc21" . Return the value. > 30 µM (inactive)

====

Target: Dual specificity mitogen-activated protein kinase kinase 2 (Homo sapiens); also: in the data inactive means no Kd found up to 30 µM
Sequence (P36507 whole entry): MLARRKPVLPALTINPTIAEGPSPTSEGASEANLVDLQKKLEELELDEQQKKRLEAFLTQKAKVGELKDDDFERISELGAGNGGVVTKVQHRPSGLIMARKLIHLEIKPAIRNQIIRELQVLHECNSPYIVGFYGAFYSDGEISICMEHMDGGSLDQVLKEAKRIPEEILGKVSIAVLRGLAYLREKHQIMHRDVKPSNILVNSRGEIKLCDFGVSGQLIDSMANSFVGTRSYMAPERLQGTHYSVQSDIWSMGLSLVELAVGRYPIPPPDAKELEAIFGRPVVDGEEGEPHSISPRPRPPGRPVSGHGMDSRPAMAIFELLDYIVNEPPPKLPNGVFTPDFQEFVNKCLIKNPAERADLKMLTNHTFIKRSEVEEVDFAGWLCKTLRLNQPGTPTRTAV
Activity calls are given as the source filed them.
Pick from class 1 for active, class 0 for inactive when you respond.

compound	qualitativeLabel
C[C@@H](N)c1ccc(C(=O)Nc2ccnc3[nH]ccc23)cc1	class 0
CO[C@H]1C[C@@H]2CC[C@@H](C)[C@@](O)(O2)C(=O)C(=O)N2CCCC[C@H]2C(=O)O[C@H]([C@H](C)C[C@@H]2CC[C@@H](OP(C)(C)=O)[C@H](OC)C2)CC(=O)[C@H](C)/C=C(\C)[C@@H](O)[C@@H](OC)C(=O)[C@H](C)C[C@H](C)/C=C/C=C/C=C/1C	class 0
Cc1nc(NC(=O)N2CCC[C@H]2C(N)=O)sc1-c1ccnc(C(C)(C)C(F)(F)F)c1	class 0
Cn1ncc(Cl)c1-c1cc(C(=O)N[C@H](CN)Cc2ccc(F)c(F)c2)oc1Cl	class 0
CC(=O)c1cnc2ccc(-c3cc(Cl)c(O)c(Cl)c3)nc2c1N[C@H]1CC[C@H](CN(C)C)CC1	class 0
O=C(Nc1cc(C(F)(F)F)cc(C(F)(F)F)c1)c1cc(Cl)ccc1O	class 0

Short answer needed: outcome of this test for "Nc1ncnc2c1c(-c1cccc(OCc3ccccc3)c1)cn2[C@H]1C[C@@H](CN2CCC2)C1" ? class 1

Short answer needed: outcome of this test for "O=C(Nc1c[nH]nc1-c1nc2cc(CN3CCOCC3)ccc2[nH]1)NC1CC1" ? class 0

Short answer needed: outcome of this test for Cc1[nH]c(/C=C2\C(=O)Nc3ccccc32)c(C)c1CCC(=O)O [ORANTINIB] ? class 1

Short answer needed: outcome of this test for "N#CC1(c2ccc(NC(=O)c3cccnc3NCc3ccncc3)cc2)CCCC1" ? class 0

Short answer needed: outcome of this test for "C[C@@H](NC(=O)c1ncnc(N)c1Cl)c1ncc(C(=O)Nc2cc(C(F)(F)F)c(Cl)cn2)s1" ? class 0

Short answer needed: outcome of this test for "O=C(Cc1ccc(-c2ccc(OCCN3CCOCC3)cc2)cn1)NCc1ccccc1" ? class 0

Short answer needed: outcome of this test for "CNC(=O)c1cc(Oc2ccc(NC(=O)Nc3cc(C(C)(C)C)nn3-c3ccc4ncccc4c3)c(F)c2)ccn1" ? class 0

Short answer needed: outcome of this test for "CO[C@H]1C[C@@H]2CC[C@@H](C)[C@@](O)(O2)C(=O)C(=O)N2CCCC[C@H]2C(=O)O[C@H]([C@H](C)C[C@@H]2CC[C@@H](OC(=O)C(C)(CO)CO)[C@H](OC)C2)CC(=O)[C@H](C)/C=C(\C)[C@@H](O)[C@@H](OC)C(=O)[C@H](C)C[C@H](C)/C=C/C=C/C=C/1C" ? class 0

Short answer needed: outcome of this test for "CNC(=O)c1nn(C)c2c1C(C)(C)Cc1cnc(Nc3ccc(N4CCN(C)CC4)cc3)nc1-2" ? class 0

Short answer needed: outcome of this test for "Cc1cc(Nc2ncc(Cl)c(Nc3ccccc3S(=O)(=O)C(C)C)n2)c(OC(C)C)cc1C1CCNCC1" ? class 0

Short answer needed: outcome of this test for "FC(F)(F)c1ccc(/C=C/c2nc(COc3ccc(CCCCn4ccnn4)cc3)co2)cc1" ? class 0

====

Calls of active or inactive are those of the source.
Kd, AarF domain-containing protein kinase 1 (Homo sapiens, UniProt Q86TW2): measured values

In [3]: df
Out[3]:
                                   molecule      reportedresult
0  O=C(NOCCO)c1cc(CN2OCCCC2=O)c(F)c(F)c1Nc1ccc(I)cc1F [RO-4987655]  > 30 µM (inactive)
1  Cc1nc(Nc2n[nH]c3c2CN(C(=O)N[C@H](CN(C)C)c2ccccc2)C3(C)C)c2sccc2n1 [PF-03758309]  > 30 µM (inactive)
2  O=c1[nH]ccc2cc(OC3CCNCC3)ccc12 [SAR-407899 FREE BASE]  > 30 µM (inactive)

Kindly consider the entry below.
Record request: Kd value, item CN1C/C=C/CCOc2cccc(c2)-c2ccnc(n2)Nc2cccc(c2)C1 [ZOTIRACICLIB] 0.023 µM

====

Target: Mitogen-activated protein kinase 8 (Homo sapiens); also: in the data inactive means no Kd found up to 30 µM
Sequence (P45983 whole entry): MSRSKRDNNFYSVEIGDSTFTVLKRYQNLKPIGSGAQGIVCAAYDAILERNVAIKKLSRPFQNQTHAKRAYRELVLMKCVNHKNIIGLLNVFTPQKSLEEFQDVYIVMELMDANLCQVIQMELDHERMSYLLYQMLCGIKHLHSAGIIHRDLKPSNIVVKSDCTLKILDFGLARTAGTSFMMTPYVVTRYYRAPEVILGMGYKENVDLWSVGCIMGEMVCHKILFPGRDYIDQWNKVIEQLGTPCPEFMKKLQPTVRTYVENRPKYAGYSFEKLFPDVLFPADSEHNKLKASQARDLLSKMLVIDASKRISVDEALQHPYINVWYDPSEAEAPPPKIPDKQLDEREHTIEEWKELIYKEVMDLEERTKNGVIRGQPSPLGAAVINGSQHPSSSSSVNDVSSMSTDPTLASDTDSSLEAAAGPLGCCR
Active and inactive are the calls of the source.
Pick from active, inactive when you respond.

Some solved cases for reference:
compound	qualitativeLabel
COc1c(OCCCN2CCOCC2)ccc2c1N=C(NC(=O)c1cnc(N)nc1)N1CCN=C21 [COPANLISIB]	inactive
COc1ncc(-c2ccc3nccc(-c4ccnnc4)c3c2)cc1NS(=O)(=O)c1ccc(F)cc1F [OMIPALISIB]	inactive
CO[C@H]1C[C@@H]2CC[C@@H](C)[C@@](O)(O2)C(=O)C(=O)N2CCCC[C@H]2C(=O)O[C@H]([C@H](C)C[C@@H]2CC[C@@H](OC(=O)C(C)(CO)CO)[C@H](OC)C2)CC(=O)[C@H](C)/C=C(\C)[C@@H](O)[C@@H](OC)C(=O)[C@H](C)C[C@H](C)/C=C/C=C/C=C/1C [TEMSIROLIMUS]	inactive
CCCCCCCCCCCCCCCCCCOP(=O)([O-])OC1CC[N+](C)(C)CC1 [PERIFOSINE]	inactive
CC(C)c1cc(CNc2nc(Nc3cc(C4CC4)[nH]n3)cc(N3CCN(C)CC3)n2)on1 [XL-228]	inactive

Short answer needed: outcome of this test for Cc1cnc(NC(=O)Nc2cc(Br)c(C)cc2OC[C@@H]2CNCCO2)cn1 [RABUSERTIB] ? inactive

Short answer needed: outcome of this test for O=C(Nc1nc2cccc(-c3ccc(CN4CCS(=O)(=O)CC4)cc3)n2n1)C1CC1 [FILGOTINIB] ? inactive

Short answer needed: outcome of this test for Cn1cnc2c(F)c(Nc3ccc(Br)cc3F)c(C(=O)NOCCO)cc21 [BINIMETINIB] ? inactive

Short answer needed: outcome of this test for "C=CC(=O)N1CCC[C@H](n2c(=O)n(-c3ccc(Oc4ccccc4)cc3)c3c(N)ncnc32)C1" ? inactive

Short answer needed: outcome of this test for C#Cc1cccc(Nc2ncnc3cc(OC)c(OCCCCCCC(=O)NO)cc23)c1 [CUDC-101] ? inactive

Short answer needed: outcome of this test for COc1cc2ncnc(Oc3cccc(NC(=O)Nc4cc(C(C)(C)C(F)(F)F)on4)c3)c2cc1OC [CEP-32496] ? active

Short answer needed: outcome of this test for C[C@@H](NC(=O)c1ncnc(N)c1Cl)c1ncc(C(=O)Nc2cc(C(F)(F)F)c(Cl)cn2)s1 [TOVORAFENIB] ? inactive

Short answer needed: outcome of this test for Cc1csc(-c2nnc(Nc3ccc(Oc4ncccc4-c4ccnc(N)n4)cc3)c3ccccc23)c1 [AMG-900] ? inactive

Short answer needed: outcome of this test for N#CC1(c2ccc(NC(=O)c3cccnc3NCc3ccncc3)cc2)CCCC1 [RIVOCERANIB] ? inactive

Short answer needed: outcome of this test for Cn1ncc(Cl)c1-c1cc(C(=O)N[C@H](CN)Cc2ccc(F)c(F)c2)oc1Cl [UPROSERTIB] ? inactive

====

Target: Acyl-CoA dehydrogenase family member 10 (Homo sapiens, UniProt Q6JQN1); also: in the data inactive means no Kd found up to 30 µM
Sequence (Q6JQN1 whole entry): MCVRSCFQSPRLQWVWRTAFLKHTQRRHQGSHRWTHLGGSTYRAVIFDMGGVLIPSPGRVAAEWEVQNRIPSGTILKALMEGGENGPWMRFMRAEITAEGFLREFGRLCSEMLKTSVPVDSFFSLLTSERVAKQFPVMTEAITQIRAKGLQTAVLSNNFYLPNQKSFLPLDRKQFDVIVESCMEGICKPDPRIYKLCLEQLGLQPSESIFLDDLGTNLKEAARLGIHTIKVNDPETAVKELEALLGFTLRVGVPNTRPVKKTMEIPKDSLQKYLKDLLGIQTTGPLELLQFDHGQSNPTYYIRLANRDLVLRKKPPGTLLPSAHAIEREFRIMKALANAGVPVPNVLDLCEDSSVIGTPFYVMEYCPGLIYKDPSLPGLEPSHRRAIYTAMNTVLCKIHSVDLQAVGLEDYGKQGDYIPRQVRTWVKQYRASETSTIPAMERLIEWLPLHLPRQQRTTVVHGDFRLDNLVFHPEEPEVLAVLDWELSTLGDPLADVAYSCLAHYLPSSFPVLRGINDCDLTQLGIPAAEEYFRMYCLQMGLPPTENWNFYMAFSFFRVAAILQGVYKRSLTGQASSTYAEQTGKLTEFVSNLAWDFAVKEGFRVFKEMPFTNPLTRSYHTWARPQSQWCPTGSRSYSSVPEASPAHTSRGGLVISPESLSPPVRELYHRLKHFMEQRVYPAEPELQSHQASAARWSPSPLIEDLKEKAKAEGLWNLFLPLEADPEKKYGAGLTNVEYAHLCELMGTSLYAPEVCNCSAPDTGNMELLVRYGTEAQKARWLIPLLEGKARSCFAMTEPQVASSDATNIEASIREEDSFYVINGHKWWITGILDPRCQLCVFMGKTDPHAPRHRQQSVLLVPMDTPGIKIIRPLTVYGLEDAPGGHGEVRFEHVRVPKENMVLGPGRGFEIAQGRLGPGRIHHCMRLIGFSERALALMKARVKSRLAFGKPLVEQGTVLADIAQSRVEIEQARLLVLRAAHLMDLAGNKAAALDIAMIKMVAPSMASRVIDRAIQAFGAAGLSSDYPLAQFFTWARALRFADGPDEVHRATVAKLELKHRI
Active and inactive are the calls of the source.
Pick from True = active, False = inactive when you respond.

compound	experimentalTarget	qualitativeLabel
Cc1csc(-c2nnc(Nc3ccc(Oc4ncccc4-c4ccnc(N)n4)cc3)c3ccccc23)c1 [AMG-900]	Acyl-CoA dehydrogenase family member 10 (Homo sapiens, UniProt Q6JQN1)	False
O=C(NOCCO)c1cc(CN2OCCCC2=O)c(F)c(F)c1Nc1ccc(I)cc1F [RO-4987655]	Acyl-CoA dehydrogenase family member 10 (Homo sapiens, UniProt Q6JQN1)	False
Cc1cc(Nc2ncnc3ccc(NC4=NC(C)(C)CO4)cc23)ccc1Oc1ccn2ncnc2c1 [TUCATINIB]	Acyl-CoA dehydrogenase family member 10 (Homo sapiens, UniProt Q6JQN1)	False
Cn1cc(-c2cnn3c(N)c(Br)c([C@@H]4CCCNC4)nc23)cn1 [SCH-900776]	Acyl-CoA dehydrogenase family member 10 (Homo sapiens, UniProt Q6JQN1)	False
CO[C@H]1C[C@@H]2CC[C@@H](C)[C@@](O)(O2)C(=O)C(=O)N2CCCC[C@H]2C(=O)O[C@H]([C@H](C)C[C@@H]2CC[C@@H](OP(C)(C)=O)[C@H](OC)C2)CC(=O)[C@H](C)/C=C(\C)[C@@H](O)[C@@H](OC)C(=O)[C@H](C)C[C@H](C)/C=C/C=C/C=C/1C [RIDAFOROLIMUS]	Acyl-CoA dehydrogenase family member 10 (Homo sapiens, UniProt Q6JQN1)	False
FC(F)(F)c1ccc(/C=C/c2nc(COc3ccc(CCCCn4ccnn4)cc3)co2)cc1 [MUBRITINIB]	Acyl-CoA dehydrogenase family member 10 (Homo sapiens, UniProt Q6JQN1)	False
CCOc1cc2ncc(C#N)c(Nc3ccc(F)c(Cl)c3)c2cc1NC(=O)/C=C/CN(C)C [PELITINIB]	Acyl-CoA dehydrogenase family member 10 (Homo sapiens, UniProt Q6JQN1)	False
C=CC(=O)Nc1cc2c(Nc3ccc(F)c(Cl)c3)ncnc2cc1C#CC(C)(C)N1CCN(C)CC1 [AV-412 FREE BASE]	Acyl-CoA dehydrogenase family member 10 (Homo sapiens, UniProt Q6JQN1)	False
CC(=O)NCC(=O)N1[C@@H]2CC[C@H]1c1ccc(Nc3ncc(C(F)(F)F)c(NC4CCC4)n3)cc12 [PF-03814735]	Acyl-CoA dehydrogenase family member 10 (Homo sapiens, UniProt Q6JQN1)	False
C[C@@H](NC(=O)c1ncnc(N)c1Cl)c1ncc(C(=O)Nc2cc(C(F)(F)F)c(Cl)cn2)s1 [TOVORAFENIB]	Acyl-CoA dehydrogenase family member 10 (Homo sapiens, UniProt Q6JQN1)	False

Short answer needed: outcome of this test for O=c1[nH]ccc2cc(OC3CCNCC3)ccc12 [SAR-407899 FREE BASE] ? False

Short answer needed: outcome of this test for "Cc1nc2cc(-c3nn(C(C)C)c4ncnc(N)c34)ccc2o1" ? False

Short answer needed: outcome of this test for N#CC[C@H](C1CCCC1)n1cc(-c2ncnc3[nH]ccc23)cn1 [RUXOLITINIB] ? False

Short answer needed: outcome of this test for Cn1cc(-c2cnc3ccc4ccc(CS(=O)(=O)NCc5ccccn5)cc4c(=O)c3c2)cn1 [MK-8033] ? False

Short answer needed: outcome of this test for CCn1cc(-c2ccnc3[nH]c(-c4cccc(CN(C)C)c4)cc23)c(-c2ccc(NC(=O)N(C)C)cc2)n1 [GSK-1070916] ? True
